# TARGET_OF_ASSAY: ΔF508 CFTR (Homo sapiens, UniProt P13569, DEL508-508)
# Sequence (P13569 with tags, fused parts or gaps DEL508-508): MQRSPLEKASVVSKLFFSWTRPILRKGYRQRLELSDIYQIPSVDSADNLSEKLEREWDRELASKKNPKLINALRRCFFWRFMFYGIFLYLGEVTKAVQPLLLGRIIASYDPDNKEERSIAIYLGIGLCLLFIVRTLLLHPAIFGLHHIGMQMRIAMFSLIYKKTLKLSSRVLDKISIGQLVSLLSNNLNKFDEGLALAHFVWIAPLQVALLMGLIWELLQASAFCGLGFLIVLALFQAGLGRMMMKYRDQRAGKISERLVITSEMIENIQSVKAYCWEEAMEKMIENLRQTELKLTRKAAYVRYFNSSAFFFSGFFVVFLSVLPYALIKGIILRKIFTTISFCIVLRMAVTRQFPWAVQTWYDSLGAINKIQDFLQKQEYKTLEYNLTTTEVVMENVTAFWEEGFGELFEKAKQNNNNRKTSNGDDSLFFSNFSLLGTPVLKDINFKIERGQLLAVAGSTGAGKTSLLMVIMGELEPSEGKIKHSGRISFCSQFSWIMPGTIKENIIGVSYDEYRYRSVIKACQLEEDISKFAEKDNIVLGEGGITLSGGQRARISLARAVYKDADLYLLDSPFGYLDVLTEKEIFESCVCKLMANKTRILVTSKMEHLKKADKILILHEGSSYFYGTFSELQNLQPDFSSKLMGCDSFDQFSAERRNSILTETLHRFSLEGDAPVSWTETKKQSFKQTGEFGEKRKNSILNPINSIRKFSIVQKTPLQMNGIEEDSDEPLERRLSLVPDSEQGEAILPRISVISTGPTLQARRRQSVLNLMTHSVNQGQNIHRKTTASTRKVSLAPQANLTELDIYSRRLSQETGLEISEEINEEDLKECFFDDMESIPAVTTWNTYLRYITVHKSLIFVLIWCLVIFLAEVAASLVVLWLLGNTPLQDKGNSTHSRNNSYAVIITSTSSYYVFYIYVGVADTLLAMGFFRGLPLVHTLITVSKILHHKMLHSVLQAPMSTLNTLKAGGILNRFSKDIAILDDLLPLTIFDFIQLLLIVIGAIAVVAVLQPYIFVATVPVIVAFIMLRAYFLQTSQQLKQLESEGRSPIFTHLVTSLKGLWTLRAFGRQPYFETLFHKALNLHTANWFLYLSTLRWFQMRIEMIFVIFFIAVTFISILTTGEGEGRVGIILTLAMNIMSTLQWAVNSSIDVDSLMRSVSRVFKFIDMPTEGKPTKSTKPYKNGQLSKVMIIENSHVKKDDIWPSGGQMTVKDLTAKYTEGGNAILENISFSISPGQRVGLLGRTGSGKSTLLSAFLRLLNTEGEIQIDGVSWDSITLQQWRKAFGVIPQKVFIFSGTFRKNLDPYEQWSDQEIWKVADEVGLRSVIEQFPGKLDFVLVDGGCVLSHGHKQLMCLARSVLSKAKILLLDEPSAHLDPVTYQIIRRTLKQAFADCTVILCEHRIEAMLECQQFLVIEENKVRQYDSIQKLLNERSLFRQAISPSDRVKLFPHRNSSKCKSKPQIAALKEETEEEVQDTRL
# ASSAY_NOTES: Screening protocol: surface expression of 3HA-tagged ΔF508 CFTR in BHK cells (anti-HA immunofluorescence plate assay)
# TEST_SETTINGS: concentrations between 100 μM and 1 pM, FIG. 2
pEC50: −log10 of the molar value.
ENDPOINT_LABEL: pEC50

>  <SMILES_RECORD>
CCOC(=O)c1nc(N)nc2c1-c1c([nH]c(Br)c1Br)C(=O)NC2

>  <pEC50>
9.30

$$$$

[A] COC(=O)c1nc(N)nc2c1-c1c([nH]c(Br)c1Br)C(=O)NC2
[B] Nc1ncc2c(n1)CNC(=O)c1[nH]c(Br)c(Br)c1-2
Compare reported pEC50 values for A and B . Which is lower? Answer format: the label of the selected item.
A
